FYI, the data here is from patent US6451736B1.

# System: Veronica
# Procedure Text: Post-emergence test/greenhouse
# Format: in vivo
# Stated Conditions: Table C, 8 g/ha, after three weeks

[
  {
    "Molecule": "CC(C)Oc1cc(-n2nc3n(c2=O)CCCC3)c(F)cc1C(N)=S [Example 17]",
    "Target Of Assay": "Veronica",
    "degree of damage, Veronica": "100%"
  },
  {
    "Molecule": "CCOc1cc(N2C(=O)C3CCCCN3C2=O)c(F)cc1C(N)=S (stereo not drawn) [Example 47]",
    "Target Of Assay": "Veronica",
    "degree of damage, Veronica": "100%"
  },
  {
    "Molecule": "CCOc1cc(-n2nc3n(c2=O)CCCC3)c(F)cc1C(N)=S [Example 12]",
    "Target Of Assay": "Veronica",
    "degree of damage, Veronica": "100%"
  },
  {
    "Molecule": "C#CC(C)Oc1cc(-n2nc(C(F)F)n(C)c2=S)c(F)cc1C(N)=S (stereo not drawn) [Example 6]",
    "Target Of Assay": "Veronica",
    "degree of damage, Veronica": "95%"
  },
  {
    "Molecule": "CCS(=O)(=O)Nc1cc(-n2nc(C(F)(F)F)n(C)c2=S)c(F)cc1C(N)=S [Example 31]",
    "Target Of Assay": "Veronica",
    "degree of damage, Veronica": "100%"
  },
  {
    "Molecule": "CC(C)Oc1cc(N2C(=O)C3CCCCN3C2=O)c(F)cc1C(N)=S (stereo not drawn) [Example 46]",
    "Target Of Assay": "Veronica",
    "degree of damage, Veronica": "100%"
  }
]
